target: Mu-type opioid receptor (Rattus norvegicus, UniProt P33535); assay: Displacement of [3H]DAMGO from MOR in Wistar rat whole brain membranes after 45 mins by liquid scintillation counting method
Sequence (P33535 whole entry): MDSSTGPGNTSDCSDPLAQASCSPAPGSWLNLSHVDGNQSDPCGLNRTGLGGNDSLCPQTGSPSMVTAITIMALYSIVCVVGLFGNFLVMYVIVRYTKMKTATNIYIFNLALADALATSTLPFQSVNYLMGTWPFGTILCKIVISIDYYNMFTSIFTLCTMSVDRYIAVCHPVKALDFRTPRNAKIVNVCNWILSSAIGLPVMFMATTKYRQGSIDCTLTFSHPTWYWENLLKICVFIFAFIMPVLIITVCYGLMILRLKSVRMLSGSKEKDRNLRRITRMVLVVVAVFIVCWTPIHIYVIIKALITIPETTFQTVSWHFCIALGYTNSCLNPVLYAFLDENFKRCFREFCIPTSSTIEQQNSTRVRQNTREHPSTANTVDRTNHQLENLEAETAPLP
pKi: −log10 of the molar value. Starred links: 1 amine or outer side, 2 acyl side, 3 side chain; linkers in the order of their positions; H or OH if unused. Positions of bridges follow the written chain, without caps; N, C: chain ends. Non-standard residues stand in square brackets, D forms with d. Residues, ends and D or L forms follow the SMILES beside them. Chains are numbered I, II in the order given. NHNH = N(N[*:2])[*:1]

compound	pKi
N[C@@H](Cc1ccc(O)cc1)C(=O)N[C@@H]1CSSC[C@@H](NC(=O)[C@@H](N)Cc2ccc(O)cc2)C(=O)NCC(=O)N[C@@H](Cc2ccccc2)C(=O)NNC(=O)[C@H](Cc2ccccc2)NC(=O)CNC1=O (I: H-Y[dC]GF / II: H-Y[dC]GF; disulfide I:2-II:2; linker I:C-II:C via NHNH)	8.22
C[C@@H](NC(=O)[C@@H](N)Cc1ccc(O)cc1)C(=O)NCC(=O)N[C@@H](Cc1ccccc1)C(=O)NNC(=O)[C@H](Cc1ccccc1)NC(=O)CNC(=O)[C@@H](C)NC(=O)[C@@H](N)Cc1ccc(O)cc1	9.10
N[C@@H](Cc1ccc(O)cc1)C(=O)N[C@@H]1CSCc2ccc(cc2)CSC[C@@H](NC(=O)[C@@H](N)Cc2ccc(O)cc2)C(=O)NCC(=O)N[C@@H](Cc2ccccc2)C(=O)NNC(=O)[C@H](Cc2ccccc2)NC(=O)CNC1=O	8.79
N[C@@H](Cc1ccc(O)cc1)C(=O)N[C@@H]1CSCc2ccccc2CSC[C@@H](NC(=O)[C@@H](N)Cc2ccc(O)cc2)C(=O)NCC(=O)N[C@@H](Cc2ccccc2)C(=O)NNC(=O)[C@H](Cc2ccccc2)NC(=O)CNC1=O.O=C(O)C(F)(F)F.O=C(O)C(F)(F)F	8.88
N[C@@H](Cc1ccc(O)cc1)C(=O)N[C@@H]1CSCc2cccc(c2)CSC[C@@H](NC(=O)[C@@H](N)Cc2ccc(O)cc2)C(=O)NCC(=O)N[C@@H](Cc2ccccc2)C(=O)NNC(=O)[C@H](Cc2ccccc2)NC(=O)CNC1=O	8.76
